System: SW-620
experimental-protocol: NCI tumour cell line growth inhibition, 48 h
The source made the active and inactive calls. Cut-off read from the data, not from the text of the source: active = GI50 up to about 1.1 µM and inactive = higher.
Choose the fitting class; nothing outside active, inactive is accepted.

Please review the entries below; each comes with its answer.
| compound | study-system | cat |
| --- | --- | --- |
| [O-][n+]1c2cc(CBr)c(CBr)cc2[n+]([O-])c2c(O)cccc21 | SW-620 | inactive |
| Cc1cc(C)c2c(c1)C/C(=C\c1ccccc1C(=O)O)C2=O | SW-620 | inactive |
| Cc1ccc(NC(=O)C(=O)C(C(=O)/C=C/c2ccccc2)C2OC(=O)c3ccccc32)c(C)c1 (stereo unspecified) | SW-620 | inactive |
| CC1=CCN(c2ccccn2)OC1c1ccccc1 (stereo unspecified) | SW-620 | inactive |
| COc1nc(C#CCCCC#N)nc(OC)n1 | SW-620 | inactive |
| CCCNC1=C(C(=O)OCC)C(=O)CO1 | SW-620 | inactive |
| O=C(O)c1c2c(cc3c1CC1(Cc4ccccc4C1)C3)CCC2 | SW-620 | inactive |
| COc1ccc(-c2nc(O)c3ccccc3n2)cc1OC | SW-620 | inactive |
| CC1=C2C(=O)C(C)(C)C=C2C(=O)[C@](C)(O)C12CC2 [DEHYDROILLUDIN M] | SW-620 | active |
| Cc1noc(-c2ccc(C(=O)O)[nH]2)c1Br | SW-620 | inactive |

Task: Returns: the outcome recorded for O=C1/C(=C/c2ccc3c(c2)CCC3)Cc2cc3c(cc21)CCC3 in this assay.
Result: inactive

Task: Returns: the outcome recorded for O=C1[C@H]2ON(c3ccccc3)C(c3ccc([N+](=O)[O-])cc3)[C@H]2C(=O)N1c1ccc(Cc2ccc(N3C(=O)[C@@H]4ON(c5ccccc5)C(c5ccc([N+](=O)[O-])cc5)[C@@H]4C3=O)cc2)cc1 (stereo partly specified) in this assay.
Result: inactive

Task: Returns: the outcome recorded for NC1=CN2c3ccccc3N(CC(=O)O)C2C=C1 (stereo unspecified) in this assay.
Result: inactive

Task: Returns: the outcome recorded for COc1ccc([S+]([O-])Cc2cc(OC)ccc2OC)cc1 (stereo unspecified) in this assay.
Result: inactive

Task: Returns: the outcome recorded for Cc1ccc([N+](=O)[O-])cc1S(=O)(=O)Nc1ccc(C2=NN(S(=O)(=O)c3cc([N+](=O)[O-])ccc3C)C(c3ccccc3O)C2)cc1 (stereo unspecified) in this assay.
Result: inactive

Task: Returns: the outcome recorded for CC1=C/C(=N\OCC(=O)O)CC(c2ccc(C(C)C)cc2)C1 (stereo unspecified) in this assay.
Result: inactive

Task: Returns: the outcome recorded for C[C@H](NC(=O)C(C)(Cc1ccc(O)cn1)NC(=O)c1ccccc1)c1ccccc1 (stereo partly specified) in this assay.
Result: inactive

Task: Returns: the outcome recorded for CCC(=O)Oc1c2ccsc2c(OC(=O)CC)c2ccsc12 in this assay.
Result: active

Task: Returns: the outcome recorded for Nc1ccn([C@H]2CO[C@@H](CO)O2)c(=O)n1 in this assay.
Result: inactive

Task: Returns: the outcome recorded for N/C(=N\c1ccccc1)c1ccccc1N in this assay.
Result: inactive

Task: Returns: the outcome recorded for N#CC(C#N)=C1c2ccccc2C(=NN)c2ccccc21 in this assay.
Result: inactive
